These data points were gathered from patent US9573911B2.

target: OGT (Homo sapiens); construct: hOGT4.5 construct (spanning residues 313-1031 based on the numbering of the full length human protein); made in house; assay: IC50 assay, OGT peptide-capture assay; type: biochemical; conditions: peptide-capture assay, different concentrations of each compound, read-out: IC50 Values
Sequence (O15294 323-1041): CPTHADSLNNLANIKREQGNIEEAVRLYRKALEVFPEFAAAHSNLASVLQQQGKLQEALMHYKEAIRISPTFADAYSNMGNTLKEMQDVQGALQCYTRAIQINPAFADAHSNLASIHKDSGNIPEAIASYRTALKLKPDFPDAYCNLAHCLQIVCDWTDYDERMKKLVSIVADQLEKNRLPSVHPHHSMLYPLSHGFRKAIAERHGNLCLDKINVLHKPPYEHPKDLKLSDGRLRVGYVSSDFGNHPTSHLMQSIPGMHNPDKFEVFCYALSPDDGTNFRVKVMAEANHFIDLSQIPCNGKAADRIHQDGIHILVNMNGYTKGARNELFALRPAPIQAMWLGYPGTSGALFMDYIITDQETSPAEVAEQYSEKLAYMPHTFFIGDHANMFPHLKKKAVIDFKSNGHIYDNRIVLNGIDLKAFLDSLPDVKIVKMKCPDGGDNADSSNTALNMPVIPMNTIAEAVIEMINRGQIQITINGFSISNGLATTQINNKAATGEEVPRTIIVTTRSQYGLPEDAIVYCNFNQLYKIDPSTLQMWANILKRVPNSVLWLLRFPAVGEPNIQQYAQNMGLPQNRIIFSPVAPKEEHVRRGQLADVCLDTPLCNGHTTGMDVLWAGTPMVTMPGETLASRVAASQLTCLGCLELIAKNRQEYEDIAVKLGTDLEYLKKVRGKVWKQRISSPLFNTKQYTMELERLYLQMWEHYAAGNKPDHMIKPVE
QUANTITY KIND: IC50

COc1ccc(OC(=O)n2c(=S)oc3cc(C(C)=O)ccc32)cc1 :: ~100 µM
O=C(Oc1ccccc1)n1c(=O)oc2ccccc21 :: > 100 µM

Okay, now this molecule:
Value wanted: IC50 (OGT (Homo sapiens)) of entry COc1ccc2c(c1)oc(=O)n2C(=O)Oc1ccccc1
~100 µM
